Data provenance is the Immune Epitope Database (IEDB).

Target: HLA-C*03:03
Experiment: IEDB peptide-MHC binding, purified MHC/direct/fluorescence; filed as Kd, often an IC50 or EC50 that approximates it; bounds were set here for any values at or beyond the usual limits of such assays
Conditions: source organism: Mycobacterium tuberculosis F11
pKd: −log10 of the molar value.
measuredParameter: pKd

Query block: Need pKd of FVAATGRPL , thanks.
Result block: ≥ 9.00

====

Target: HLA-A*68:02
Assay: IEDB peptide-MHC binding, purified MHC/competitive/radioactivity; filed as Kd, often an IC50 or EC50 that approximates it; bounds were set here for any values at or beyond the usual limits of such assays
Conditions: source organism: Vaccinia virus WR
measuredParameter: Kd (µM)
Give bare numbers, in µM.

Guide cases for Kd, answers given:
chainSequence	targetSystem	unitOfMeasure	reportedMeasurement
IPFIAYFVLM	HLA-A*68:02	µM	9.33
YIIRVTTEL	HLA-A*68:02	µM	0.147
VILFIMFMLI	HLA-A*68:02	µM	1.08

Pending sequence:
Query block: Need Kd of MVIENGILKK , thanks.
Result block: 11.2
